IC50 for UniProt:P23458, merged from several publications.
assayEndpoint: IC50

{"compound": "Nc1cc2ccc1-c1ccnc(n1)Nc1ccc(OC3CC3)c(c1)COc1ccc(cc1F)NC2=O", "assayEndpoint": "IC50", "measuredValue": "101 to 1000 nM"}
{"compound": "CN(c1ncnc2[nH]ccc12)C1CCC2(CC1)CCN(C(=O)Nc1ncc(F)s1)CC2", "assayEndpoint": "IC50", "measuredValue": "10 to 100 nM"}
{"compound": "CCC(=O)NC[C@H]1CC[C@H](n2c(CC#N)nc3cnc4ccsc4c32)CC1", "assayEndpoint": "IC50", "measuredValue": "≤ 100 nM"}
{"compound": "CN1CC(CC#N)(n2cc(-c3nc(-c4cnn(C)c4)cc4nccn34)cn2)C1", "assayEndpoint": "IC50", "measuredValue": "> 1000 nM"}
{"compound": "N#CCC(C1CCC1)n1cc(-c2ncnc3[nH]ccc23)cn1 (single isomer, unassigned)", "assayEndpoint": "IC50", "measuredValue": "< 2 nM"}
